target: CDK-2 (Homo sapiens, UniProt P24941); assay: Fluorescence polarization displacement assay (inhibitory effectiveness toward CDK-2); format: binding; settings: inhibitory effectiveness toward CDK-2; read-out: IC50
Property: IC50; scope: individual compounds

Example cases with answers are listed next.
compound: COC[C@H](Cc1ccc(O)cc1)NC(=O)c1cc(C(=O)O)c2cc(C#CCCO)ccc2n1
IC50: > 40 µM

compound: COC[C@H](Cc1ccc(O)cc1)NC(=O)c1cc(C(=O)O)c2cc(C#CCCn3cccn3)ccc2n1
IC50: > 40 µM

compound: CCCCC/C=C/c1ccc2nc(C(=O)N[C@H](COC)Cc3ccc(O)cc3)cc(C(=O)O)c2c1
IC50: < 1 µM

compound: COC(=O)[C@H](Cc1ccc(O)cc1)NC(=O)c1cc(C(=O)O)c2cc(-c3ccsc3)ccc2n1
IC50: 1 to 40 µM

compound: COC[C@H](Cc1ccc(O)cc1)NCc1cc(C(=O)OCC(O)CO)c2cc(-c3cccc(C(F)(F)F)c3)ccc2n1 (some centres unmarked)
IC50: > 40 µM

stdin: Tell me IC50 reported for "COC(=O)[C@H](Cc1ccccc1)NC(=O)c1cc(C(=O)O)c2cc(-c3cccs3)ccc2n1"
stdout: > 40 µM

stdin: Tell me IC50 reported for "COC(=O)[C@@H](NC(=O)c1cc(C(=O)O)c2cc(-c3cccc(C(F)(F)F)c3)ccc2n1)c1ccc(O)cc1"
stdout: 1 to 40 µM

stdin: Tell me IC50 reported for "CO/N=C\[C@H](Cc1ccc(O)cc1)NC(=O)c1cc(C(=O)O)c2cc(-c3cccc(C(F)(F)F)c3)ccc2n1"
stdout: < 1 µM
